Target: hERG channels (Homo sapiens, UniProt Q12809)
Construct: expressed in transfected cells
Sequence (Q12809 whole entry): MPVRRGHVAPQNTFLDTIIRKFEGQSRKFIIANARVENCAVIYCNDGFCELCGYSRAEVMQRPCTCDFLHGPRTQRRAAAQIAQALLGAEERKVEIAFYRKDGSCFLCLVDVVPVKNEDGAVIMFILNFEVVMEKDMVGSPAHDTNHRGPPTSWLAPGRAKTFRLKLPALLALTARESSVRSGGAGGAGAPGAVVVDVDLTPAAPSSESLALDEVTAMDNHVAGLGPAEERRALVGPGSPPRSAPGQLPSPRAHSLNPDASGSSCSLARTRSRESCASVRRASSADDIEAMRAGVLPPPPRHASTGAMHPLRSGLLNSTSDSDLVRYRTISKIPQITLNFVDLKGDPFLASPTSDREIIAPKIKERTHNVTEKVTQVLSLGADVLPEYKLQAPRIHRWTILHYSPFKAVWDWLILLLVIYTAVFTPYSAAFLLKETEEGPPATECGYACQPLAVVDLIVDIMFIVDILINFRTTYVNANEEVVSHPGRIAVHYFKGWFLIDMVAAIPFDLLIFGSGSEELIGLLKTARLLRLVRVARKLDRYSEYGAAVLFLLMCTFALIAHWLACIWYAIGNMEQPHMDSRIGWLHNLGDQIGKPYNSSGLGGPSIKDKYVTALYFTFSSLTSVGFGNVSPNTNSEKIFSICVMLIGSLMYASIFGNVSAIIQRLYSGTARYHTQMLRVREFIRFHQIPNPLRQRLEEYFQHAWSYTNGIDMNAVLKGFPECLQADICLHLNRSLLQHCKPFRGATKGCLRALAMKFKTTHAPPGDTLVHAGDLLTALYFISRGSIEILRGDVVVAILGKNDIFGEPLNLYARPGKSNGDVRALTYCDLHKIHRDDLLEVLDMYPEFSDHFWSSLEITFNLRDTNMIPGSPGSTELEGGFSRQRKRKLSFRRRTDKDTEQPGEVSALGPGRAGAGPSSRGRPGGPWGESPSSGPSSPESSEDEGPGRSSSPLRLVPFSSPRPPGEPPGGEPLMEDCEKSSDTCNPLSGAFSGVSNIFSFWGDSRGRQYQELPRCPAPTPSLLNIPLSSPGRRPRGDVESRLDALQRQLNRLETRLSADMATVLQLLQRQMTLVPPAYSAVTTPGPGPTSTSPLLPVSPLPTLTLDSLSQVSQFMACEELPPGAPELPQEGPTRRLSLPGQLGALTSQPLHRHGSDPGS
Experiment: Herg-Rb two phase screen (rubidium efflux)
Type: cell-based
Conditions: test article at 5 μg/ml; CHO cells expressing hERG; relative to complete block with 10 μM dofetilide
endpoint: herg-Rb 5 μg/mL (%)

NCc1cnc(C2=CCC(N(CCN3CCCC3)C(=O)Nc3ccc(F)c(Cl)c3)CC2)s1 (centres unmarked): 14
NCc1ccc(C2=CCC(N(CCN3CCCC3)C(=O)Nc3ccc(F)c(Cl)c3)CC2)s1 (centres unmarked): 26
NCc1ncc([C@]23CC[C@@H](N(CCCN4CC5CC4CN5)C(=O)Nc4ccc(F)c(C(F)(F)F)c4)C2C3)s1 (some centres unmarked): 14
C[C@@H]1CN(CCCN(C(=O)Nc2cc(Cl)nc(Cl)c2)[C@@H]2CC[C@]3(c4cnc(CN)s4)CC23)[C@@H](C)CN1 (some centres unmarked): 3
NCc1ncc([C@]23CC[C@@H](N(CCCN4CC[C@H](O)C4)C(=O)Nc4ccc(F)c(C(F)(F)F)c4)C2C3)s1 (some centres unmarked): −4
NCc1ncc(C2=CCC(N(CCN3CCCC3)C(=O)Nc3ccc(F)c(C(F)(F)F)c3)CC2)s1 (centres unmarked): 26
O=C(Nc1ccc(F)c(Cl)c1)N(CCN1CCCC1)C1CC=C(c2ccc(CN3CCC3)s2)CC1 (centres unmarked): 15
C[C@@H]1CN(CCCN(C(=O)Nc2ccc(F)c(C(F)(F)F)c2)[C@@H]2CC[C@]3(c4cnc(CN)s4)CC23)[C@@H](C)CN1 (some centres unmarked): −8

----------
Biological target: MCH receptor (Homo sapiens)
Construct: expressed in transfected cells; host or cells: CHO cells (membrane preparation)
Sequence (Q99705 whole entry): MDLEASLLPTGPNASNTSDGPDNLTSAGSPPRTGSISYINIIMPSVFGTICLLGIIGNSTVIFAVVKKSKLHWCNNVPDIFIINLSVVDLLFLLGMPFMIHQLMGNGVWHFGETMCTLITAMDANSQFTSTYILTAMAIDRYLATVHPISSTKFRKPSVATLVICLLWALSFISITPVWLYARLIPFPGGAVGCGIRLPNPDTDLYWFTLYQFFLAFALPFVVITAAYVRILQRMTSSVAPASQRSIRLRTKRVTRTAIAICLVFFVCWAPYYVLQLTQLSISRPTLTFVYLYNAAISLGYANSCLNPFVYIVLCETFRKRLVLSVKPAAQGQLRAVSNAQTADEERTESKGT
Assay: MCH receptor binding assay ([125I]-MCH, SPA)
Conditions: membranes from CHO cells expressing the MCH receptor, read-out: Class (Ki)
Collected Ki values appear next to each entry.
endpoint: Ki

NCc1cnc(C2=CCC(N(CCN3CCCC3)C(=O)Nc3ccc(F)c(Cl)c3)CC2)s1 (centres unmarked): < 30 nM
NCc1ncc([C@]23CC[C@@H](N(CCCN4CC5CC4CN5)C(=O)Nc4ccc(F)c(C(F)(F)F)c4)C2C3)s1 (some centres unmarked): 30 to 100 nM
NCc1ncc([C@]23CC[C@@H](N(CCN4CC[C@H](O)C4)C(=O)Nc4ccc(F)c(C(F)(F)F)c4)[C@H]2C3)s1: 30 to 100 nM
C[C@@H]1CN(CCCN(C(=O)Nc2cc(Cl)nc(Cl)c2)[C@@H]2CC[C@]3(c4cnc(CN)s4)CC23)[C@@H](C)CN1 (some centres unmarked): < 30 nM
CN(C)Cc1ncc(C2=CCC(N(CCN3CCCC3)C(=O)Nc3ccc(F)c(Cl)c3)CC2)s1 (centres unmarked): > 100 nM

meta.source: patent US7361769B2
